In this section we review reported protein stability index values for a set of variants.
B1: OR10K2 (parent)
chain: SLARLQQLLFVIFLLLYLFTLGTN

variants of: B1; test: protein stability index of a GFP-peptide fusion (GPS, HEK-293T) (PSI 1-6); higher = more stable; settings: c terminus: a fixed tail appended;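 further: lentivirally expressed fusions sorted by FACS into six bins by GFP to DsRed ratio, PSI derived from sequencing read proportions per bin multiplied by bin number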
measured_parameter: protein stability index

[[record]]
mutation_spec = "L21I"
measured_value = 2.08

[[record]]
mutation_spec = "T20N"
measured_value = 3.75

[[record]]
mutation_spec = "S1M"
measured_value = 3.25

[[record]]
mutation_spec = "T20R"
measured_value = 2.2

[[record]]
mutation_spec = "L5H"
measured_value = 2.62

[[record]]
mutation_spec = "S1N"
measured_value = 2.38

[[record]]
mutation_spec = "L21C"
measured_value = 3.39

[[record]]
mutation_spec = "L18G"
measured_value = 2.29

[[record]]
mutation_spec = "Q7V"
measured_value = 2.1

[[record]]
mutation_spec = "F10Y"
measured_value = 2.37

[[record]]
mutation_spec = "L2Q"
measured_value = 2.62

[[record]]
mutation_spec = "L2N"
measured_value = 3.77

[[record]]
mutation_spec = "Q7Y"
measured_value = 1.66

[[record]]
mutation_spec = "L2R"
measured_value = 2.48

[[record]]
mutation_spec = "S1L"
measured_value = 3.72

[[record]]
mutation_spec = "L5V"
measured_value = 2.44

[[record]]
mutation_spec = "L5T"
measured_value = 2.28

[[record]]
mutation_spec = "L18K"
measured_value = 2.07

[[record]]
mutation_spec = "L15Q"
measured_value = 2.4

[[record]]
mutation_spec = "L5A"
measured_value = 3.68

[[record]]
mutation_spec = "Q6L"
measured_value = 2.97

[[record]]
mutation_spec = "L5R"
measured_value = 1.85

[[record]]
mutation_spec = "L2T"
measured_value = 2.59

[[record]]
mutation_spec = "R4H"
measured_value = 2.36

[[record]]
mutation_spec = "Q6P"
measured_value = 1.38

[[record]]
mutation_spec = "G22H"
measured_value = 2.3

[[record]]
mutation_spec = "S1G"
measured_value = 2.86

[[record]]
mutation_spec = "Q7S"
measured_value = 2.11

[[record]]
mutation_spec = "Q7F"
measured_value = 1.79

[[record]]
mutation_spec = "Q6H"
measured_value = 2.35

[[record]]
mutation_spec = "S1K"
measured_value = 2.87

[[record]]
mutation_spec = "S1R"
measured_value = 2.11

